# TESTED ON: Protein kinase C delta type (Mus musculus, UniProt P28867)
# Sequence (P28867 whole entry, the tested form may be a part): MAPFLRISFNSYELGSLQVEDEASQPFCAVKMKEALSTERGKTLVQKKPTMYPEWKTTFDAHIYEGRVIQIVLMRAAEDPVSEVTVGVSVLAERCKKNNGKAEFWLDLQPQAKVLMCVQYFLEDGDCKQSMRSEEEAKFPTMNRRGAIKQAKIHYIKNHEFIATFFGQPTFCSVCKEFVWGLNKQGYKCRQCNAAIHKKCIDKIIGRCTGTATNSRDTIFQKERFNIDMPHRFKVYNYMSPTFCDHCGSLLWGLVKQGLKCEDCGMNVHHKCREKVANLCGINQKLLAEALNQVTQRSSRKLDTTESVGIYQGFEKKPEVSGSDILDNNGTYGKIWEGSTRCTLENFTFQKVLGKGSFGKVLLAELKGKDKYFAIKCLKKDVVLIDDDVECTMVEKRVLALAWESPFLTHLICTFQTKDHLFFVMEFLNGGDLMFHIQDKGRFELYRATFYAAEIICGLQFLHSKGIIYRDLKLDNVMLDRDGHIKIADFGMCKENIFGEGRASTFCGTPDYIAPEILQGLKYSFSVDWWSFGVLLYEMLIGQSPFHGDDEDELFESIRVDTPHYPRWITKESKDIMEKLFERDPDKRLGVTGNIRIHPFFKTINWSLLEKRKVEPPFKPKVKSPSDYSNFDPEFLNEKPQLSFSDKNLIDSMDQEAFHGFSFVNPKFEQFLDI
# ASSAY PROTOCOL: Binding affinity to mouse wild-type PKCdelta C1a expressed in Escherichia coli
Assignment: determine reported pKi for the given compounds.
In textbook form, pKi equals minus log to base ten of the concentration in mol/L.

Summary line: CC(C)CC(C/C=C1/CC(CO)(COC(=O)C(C)(C)C)OC1=O)CC(C)C (configuration not stated) , Protein kinase C delta type (Mus musculus, UniProt P28867), reported pKi = 8.92

Summary line: CC(C)CC(C/C=C1/OC(CO)(COC(=O)C(C)(C)C)OC1=O)CC(C)C (configuration not stated) , Protein kinase C delta type (Mus musculus, UniProt P28867), reported pKi = 8.37

---

# TESTED ON: Protein kinase C delta type (Mus musculus, UniProt P28867)
# ASSAY PROTOCOL: Binding affinity to mouse PKC delta C1a Q27E mutant expressed in Escherichia coli
VALUE TYPE: Ki (nM)
Your answer should be a plain number; it is taken to be in nM.

The reported value for CC(C)CC(C/C=C1/CC(CO)(COC(=O)C(C)(C)C)OC1=O)CC(C)C (configuration not stated) in terms of Ki is 476

The reported value for CC(C)CC(C/C=C1/OC(CO)(COC(=O)C(C)(C)C)OC1=O)CC(C)C (configuration not stated) in terms of Ki is 1570

---

# TESTED ON: Protein kinase C delta type (Mus musculus)
# ASSAY PROTOCOL: Displacement of [3H]PDBu from mouse wild type C1b domain of PKCdelta expressed in Escherichia coli
Assignment: determine reported pKi for the given compounds.
In textbook form, pKi equals minus log to base ten of the concentration in mol/L.

The reported value for CC(C)CC(C/C=C1/CC(CO)(COC(=O)C(C)(C)C)OC1=O)CC(C)C (configuration not stated) in terms of pKi is 8.94

The reported value for CC(C)C/C=C1/CC(CO)(COC(=O)CC(CC(C)C)CC(C)C)OC1=O (configuration not stated) in terms of pKi is 8.67

The reported value for CC(C)CC(C/C=C1/OC(CO)(COC(=O)C(C)(C)C)OC1=O)CC(C)C (configuration not stated) in terms of pKi is 9.09

The reported value for CC(C)CC(=O)OCC1(CO)C/C(=C/CC(CC(C)C)CC(C)C)C(=O)O1 (configuration not stated) in terms of pKi is 9.02

The reported value for CC(C)CC(=O)OCC1(CO)OC(=O)/C(=C\CC(CC(C)C)CC(C)C)O1 (configuration not stated) in terms of pKi is 8.55

The reported value for CC(C)C/C=C1/OC(CO)(COC(=O)CC(CC(C)C)CC(C)C)OC1=O (configuration not stated) in terms of pKi is 9.05

The reported value for `CCCC(=O)O[C@@H]1[C@@H](C)[C@@]2(O)[C@@H](C=C(CO)C[C@]3(O)C(=O)C(C)=C[C@@H]23)[C@@H]2C(C)(C)[C@]12OC(=O)CCC` in terms of pKi is 9.48

---

# TESTED ON: Protein kinase C delta type (Mus musculus)
# ASSAY PROTOCOL: Ratio of Ki for mouse PKCdelta C1b Q27E mutant to Ki for mouse wild type C1b domain of PKCdelta
# if measured Ratio Ki < 60: 1 (yes)  # else: 0 (no)

Just wondering, is Ratio Ki of CC(C)CC(C/C=C1/OC(CO)(COC(=O)C(C)(C)C)OC1=O)CC(C)C (stereo unspecified) below 60?
0 (no)

Just wondering, is Ratio Ki of CC(C)CC(C/C=C1/CC(CO)(COC(=O)C(C)(C)C)OC1=O)CC(C)C (stereo unspecified) below 60?
1 (yes)

Just wondering, is Ratio Ki of CC(C)C/C=C1/OC(CO)(COC(=O)CC(CC(C)C)CC(C)C)OC1=O (stereo unspecified) below 60?
0 (no)

Just wondering, is Ratio Ki of CC(C)CC(=O)OCC1(CO)OC(=O)/C(=C\CC(CC(C)C)CC(C)C)O1 (stereo unspecified) below 60?
0 (no)

Just wondering, is Ratio Ki of CC(C)CC(=O)OCC1(CO)C/C(=C/CC(CC(C)C)CC(C)C)C(=O)O1 (stereo unspecified) below 60?
1 (yes)

Just wondering, is Ratio Ki of CC(C)C/C=C1/CC(CO)(COC(=O)CC(CC(C)C)CC(C)C)OC1=O (stereo unspecified) below 60?
1 (yes)

Reference source: ChEMBL document CHEMBL1146211
